Would you kindly list cAMP assay IC50 for each of these binders?
- systemName: T1, human alpha CGRP (SEQ ID NO: 80) (human, not fully specified)
- T1 peptide: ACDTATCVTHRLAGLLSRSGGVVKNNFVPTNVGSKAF
- testDescription: cell-based or functional assay

Given the entry tag-free lipocalin mutein SEQ ID NO: 89 (designed binder, biotinylated by NHS chemistry for capture in SPR; also called tag-free mutein 89) GQDSTSDLIPAPPLSKVPLQQNFQDNQFHGKWYVVGRAGNDVLREDKDPEKMEATIYELKEDKSYQVTDVGFVQKRCMYVTHTFVPGSQPGEFTLGNIESYPGVTSALVRVVSTDYNQHAMVFVKLVKQNRELFEITLYGRTKELTSELKENFIRFSKSLGLPENHIVFPVPIDQCIDD , report its measured cAMP assay IC50. 0.17 nM

Now consider tag-free lipocalin mutein SEQ ID NO: 92 (designed binder, biotinylated by NHS chemistry for capture in SPR; also called tag-free mutein 92) GQDSTSDLKPAPPLSKVPLQQNFQDNQFHGKWYVVGRAGNDVLREDKDPEKMEATIYELKEDKSYQVTDVGFVQKRCMYVTHTFVPGSQPGEFTLGNIESYPGVTSALVRVVSTDYNQHAMVFVKLVKQNRELFEITLYGRTKELTSELKENFIRFSKSLGLPENHIVFPVPIDQCIDD . 0.18 nM
